This collection of values is drawn from patent US11021444B2.

CC50 at 5 days for assorted compounds
Test: Cytotoxicity Determination (CCK-8, without addition of virus)
Type: cell-based
Settings: human, 50% cytotoxicity concentration (CC50)
Value Type: CC50 at 5 days

compound="COc1ccc(C(O)(CNC(=O)c2ccc3ncccc3c2)C(F)(F)F)nc1-c1ccc(F)c(Cl)c1 (centres unmarked)" value_type="CC50 at 5 days" result="10 to 100 µM"
compound="COc1cc(C(=O)NCC(O)(c2cc3c(c(-c4ccc(F)c(Cl)c4)n2)NCC3(C)C)C(F)(F)F)ccc1OC1CC1 (centres unmarked)" value_type="CC50 at 5 days" result="> 100 µM"
compound="COc1cc(C(=O)NCC(O)(CN2CCNCC2)c2ccc(OC)c(-c3ccc(F)c(Cl)c3)n2)ccc1OCCO (centres unmarked)" value_type="CC50 at 5 days" result="> 100 µM"
compound="COCC(C)(N)c1cc(-c2ccc(F)c(Cl)c2)nc(C(O)(CNC(=O)c2ccc(OCCO)c(OC)c2)C(F)(F)F)c1 (centres unmarked)" value_type="CC50 at 5 days" result="10 to 100 µM"
compound="COc1ccc(C(=O)NCC(O)c2csc(-c3csc4c(F)cccc34)n2)cc1OC (centres unmarked)" value_type="CC50 at 5 days" result="> 100 µM"
compound="COc1cc(C(=O)NCC(C)(O)c2ccc(OC)c(-c3ccc(F)c(Cl)c3)n2)ccc1OC(C)(C)C (centres unmarked)" value_type="CC50 at 5 days" result="10 to 100 µM"
compound="COc1cc(C(=O)NCC(O)(CN2CCCC2)c2ccc(OC)c(-c3ccc(F)c(Cl)c3)n2)ccc1OCCO (centres unmarked)" value_type="CC50 at 5 days" result="> 100 µM"
compound="COc1cc(C(=O)NCC(O)(c2ccc(OC)c(-c3ccc(F)c(Cl)c3)n2)C(F)(F)F)ccc1OC1(CF)CC1 (centres unmarked)" value_type="CC50 at 5 days" result="> 100 µM"
compound="CCOC(=O)COc1ccc(C(=O)NCC(O)(c2cc(C(C)(C)N)cc(-c3ccc(F)c(Cl)c3)n2)C(F)(F)F)cc1OC (centres unmarked)" value_type="CC50 at 5 days" result="10 to 100 µM"
compound="COc1cc(C(=O)NCC(O)(c2cc3c(c(-c4ccc(F)c(Cl)c4)n2)OCC3(C)C)C(F)(F)F)cc2ccc(C(N)=O)nc12 (centres unmarked)" value_type="CC50 at 5 days" result="10 to 100 µM"
compound="COc1cc(C(=O)NCC(O)(c2ccc(OC)c(C3COc4c(F)cccc43)n2)C2CC2)ccc1OCCO (centres unmarked)" value_type="CC50 at 5 days" result="> 100 µM"
compound="CC(C)(N)c1cc(-c2ccc(F)cc2)nc(C(O)(CNC(=O)c2cnc[nH]2)C(F)(F)F)c1 (centres unmarked)" value_type="CC50 at 5 days" result="> 100 µM"
compound="COc1cc(C(=O)NCC(C)(O)c2ccc(OC)c(-c3ccc(F)c(Cl)c3)n2)ccc1OCC(F)F (centres unmarked)" value_type="CC50 at 5 days" result="10 to 100 µM"
compound="CC(C)(N)c1cc(-c2ccc(F)cc2)nc(C(O)(CNC(=O)c2ccc3oc(=O)[nH]c3c2)C(F)(F)F)c1 (centres unmarked)" value_type="CC50 at 5 days" result="10 to 100 µM"
